assay: yeast display, Sf9 membrane polyspecificity reagent, FACS + sequencing; frameworks hold sequencing errors
property.label: polyreactivity (PSR sort gate)

residue.codes	property.label	result
QVQLVESGGGLVQAGGSLRLSCAASGSIFVSYAMGWYRQAPGKERELVAAISISDGSTYADSVKGRFTISRDNAKNTVYLQMNSLKPEDTAVYYCATYLVYDYAYVAYDYWGQGTQVTVSS	polyreactivity (PSR sort gate)	low polyreactivity
QVQLVESGGVLVQAGGSLRLSCAASGSIFASNAMGWYRQAPGKEREFVAAISWSGTRTYYADSVKGRFTISRDTAKNTVYLQMNSLKPEDTAVYYCAALTVLRNDYWGLGTQVTVSS	polyreactivity (PSR sort gate)	low polyreactivity

The measured values listed here are drawn from the nanobody polyreactivity screen of Harvey et al. (2022).
